Target: human RIPK1 (1-375) (Homo sapiens, UniProt Q13546)
Construct: human RIPK1 (1-375) gene; GST; made in house; host or cells: Sf-9 insect cells
Sequence (Q13546 1-375): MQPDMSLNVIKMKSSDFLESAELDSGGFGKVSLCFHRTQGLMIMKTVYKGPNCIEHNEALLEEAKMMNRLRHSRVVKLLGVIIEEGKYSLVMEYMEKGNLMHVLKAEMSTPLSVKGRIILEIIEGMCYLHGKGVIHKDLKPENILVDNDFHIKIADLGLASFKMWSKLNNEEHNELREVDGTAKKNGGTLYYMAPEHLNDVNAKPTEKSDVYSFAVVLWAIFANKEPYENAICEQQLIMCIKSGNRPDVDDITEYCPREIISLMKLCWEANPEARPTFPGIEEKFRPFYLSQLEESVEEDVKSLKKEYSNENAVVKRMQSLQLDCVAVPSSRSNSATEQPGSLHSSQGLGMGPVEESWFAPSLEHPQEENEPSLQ
Assay: Human RIPK1 enzyme inhibitory effect (ADP-Glo Kinase Assay)
Type: biochemical
Conditions: 10 μM test compound; well without enzyme = 100% inhibition; 10 µM
Reported human RIPK1 enzyme inhibitory effect at 10 μM (% inhibition) values follow for various compounds
VALUE_TYPE: human RIPK1 enzyme inhibitory effect at 10 μM (% inhibition) (%)

- COMPOUND: "CN1C(=O)C(N2CCc3c(nn(Cc4ccccc4F)c3Cl)C2=O)CCc2c1cnn2C (stereo not drawn) [Example 131]"
  REPORTED: 100
- COMPOUND: "CN1C(=O)C(N2CCc3c(nn(Cc4ccccc4F)c3Cl)C2=O)CCc2ccncc21 (stereo not drawn) [Example 97]"
  REPORTED: 98
- COMPOUND: "CN1C(=O)C(N2CCc3c(nn(Cc4ccccc4)c3Cl)C2=O)CCc2cccnc21 (stereo not drawn) [Example 94]"
  REPORTED: 101
- COMPOUND: "CN1C(=O)C(N2CCc3c(nn(Cc4ccccc4F)c3Cl)C2=O)CCc2cnccc21 (stereo not drawn) [Example 106]"
  REPORTED: 95
- COMPOUND: "CN1C(=O)C(N2CCc3c(nn(Cc4ccccc4)c3Cl)C2=O)CCc2cn(C)nc21 (stereo not drawn) [Example 111]"
  REPORTED: 99
- COMPOUND: "CN1C(=O)C(N2CCc3c(nn(Cc4ccccc4)c3Cl)C2=O)CCc2cccnc21 (stereo not drawn) [Example 91]"
  REPORTED: 100
- COMPOUND: "CN1C(=O)C(N2CCc3c(nn(Cc4ccccc4)c3Cl)C2=O)CCc2cn(C)nc21 (stereo not drawn) [Example 114]"
  REPORTED: 101
- COMPOUND: "CN1C(=O)C(N2CCc3c(nn(Cc4ccccc4F)c3Cl)C2=O)CCc2nn(C)cc21 (stereo not drawn) [Example 120]"
  REPORTED: 95
- COMPOUND: "CN1C(=O)C(N2CCc3c(nn(Cc4ccccc4F)c3Cl)C2=O)CCc2ccncc21 (stereo not drawn) [Example 104]"
  REPORTED: 95
- COMPOUND: "CN1C(=O)C(N2CCc3c(nn(Cc4ccccc4)c3Cl)C2=O)CCc2ncccc21 (stereo not drawn) [Example 66]"
  REPORTED: 100
- COMPOUND: "CN1C(=O)C(N2CCc3c(nn(Cc4c(F)cccc4F)c3Cl)C2=O)CCc2c1cnn2C (stereo not drawn) [Example 133]"
  REPORTED: 100
- COMPOUND: "CN1C(=O)C(N2CCc3c(nn(Cc4ccccc4F)c3Cl)C2=O)CCc2nn(C)cc21 (stereo not drawn) [Example 121]"
  REPORTED: 86
- COMPOUND: "CN1C(=O)C(N2CCc3c(nn(Cc4ccccc4)c3Cl)C2=O)CCc2ncccc21 (stereo not drawn) [Example 67]"
  REPORTED: 73
- COMPOUND: "CNC(=O)c1ccc2c(c1)CCC(N1CCc3c(nn(Cc4ccccc4)c3Cl)C1=O)C(=O)N2C (stereo not drawn) [Example 137]"
  REPORTED: 87
- COMPOUND: "CN1C(=O)C(N2CCc3c(nn(Cc4ccccc4)c3Cl)C2=O)CCc2ccncc21 (stereo not drawn) [Example 95]"
  REPORTED: 101
- COMPOUND: "CN1C(=O)C(N2CCc3c(nn(Cc4ccccc4F)c3Cl)C2=O)CCc2cnccc21 (stereo not drawn) [Example 96]"
  REPORTED: 96
- COMPOUND: "CN1C(=O)C(N2CCc3c(nn(Cc4ccccc4F)c3Cl)C2=O)CCc2c1cnn2C (stereo not drawn) [Example 132]"
  REPORTED: 89
- COMPOUND: "CNC(=O)c1ccc2c(c1)CCC(N1CCc3c(nn(Cc4ccccc4)c3Cl)C1=O)C(=O)N2C (stereo not drawn) [Example 136]"
  REPORTED: 101
- COMPOUND: "CN1C(=O)C(N2CCc3c(nn(Cc4ccccc4)c3Cl)C2=O)CCc2cnccc21 (stereo not drawn) [Example 99]"
  REPORTED: 98
- COMPOUND: "CN1C(=O)C(N2CCc3c(nn(Cc4ccccc4)c3Cl)C2=O)CCc2cccnc21 (stereo not drawn) [Example 93]"
  REPORTED: 69
- COMPOUND: "CN1C(=O)C(N2CCc3c(nn(Cc4ccccc4)c3Cl)C2=O)CCc2ncccc21 (stereo not drawn) [Example 65]"
  REPORTED: 99
- COMPOUND: "CN1C(=O)C(N2CCc3c(nn(Cc4ccccc4)c3Cl)C2=O)CCc2ccncc21 (stereo not drawn) [Example 102]"
  REPORTED: 88
- COMPOUND: "CN1C(=O)C(N2CCc3c(nn(Cc4c(F)cccc4F)c3Cl)C2=O)CCc2c1cnn2C (stereo not drawn) [Example 134]"
  REPORTED: 93
- COMPOUND: "CN1C(=O)C(N2CCc3c(nn(Cc4ccccc4)c3Cl)C2=O)CCc2c1cnn2C (stereo not drawn) [Example 127]"
  REPORTED: 100
- COMPOUND: "CN1C(=O)C(N2CCc3c(nn(Cc4ccccc4)c3Cl)C2=O)CCc2c1cnn2C (stereo not drawn) [Example 128]"
  REPORTED: 84
- COMPOUND: "CN1C(=O)C(N2CCc3c(nn(Cc4ccccc4)c3Cl)C2=O)CCc2cnccc21 (stereo not drawn) [Example 100]"
  REPORTED: 91
- COMPOUND: "CN1C(=O)C(N2CCc3c(nn(Cc4ccccc4)c3Cl)C2=O)CCc2cn(C)nc21 (stereo not drawn) [Example 113]"
  REPORTED: 61

* * *

Biological target: human RIPK1 (1-375) (Homo sapiens)
Construct: human RIPK1 (1-375) gene; GST; made in house; host or cells: Sf-9 insect cells
Test: Human RIPK1 enzyme inhibitory effect (ADP-Glo Kinase Assay)
Type: biochemical
Conditions: read-out: human RIPK1 enzyme inhibitory effect at 10 μM (% inhibition), 10 μM test compound; well without enzyme = 100% inhibition

- COMPOUND: "CN1C(=O)[C@@H](N2CCc3c(nc(Cc4ccccc4)n3C)C2=O)COc2ccccc21"
  TARGET_OR_TEST_SYSTEM: "human RIPK1 (1-375) (Homo sapiens)"
  inhibition at 10 µM [%]: 96
- COMPOUND: "O=C1Nc2cc(Cl)ccc2OC[C@@H]1N1CCc2c(nn(Cc3ccccc3)c2Cl)C1=O"
  TARGET_OR_TEST_SYSTEM: "human RIPK1 (1-375) (Homo sapiens)"
  inhibition at 10 µM [%]: 100
- COMPOUND: "CN(C)C(=O)c1ccc2c(c1)OC[C@H](N1CCc3c(nn(Cc4ccccc4)c3Cl)C1=O)C(=O)N2C"
  TARGET_OR_TEST_SYSTEM: "human RIPK1 (1-375) (Homo sapiens)"
  inhibition at 10 µM [%]: 100
- COMPOUND: "CN1C(=O)[C@@H](N2CCc3cn(Cc4ccccc4F)nc3C2=O)COc2ccc(C#N)cc21"
  TARGET_OR_TEST_SYSTEM: "human RIPK1 (1-375) (Homo sapiens)"
  inhibition at 10 µM [%]: 101
- COMPOUND: "CN1C(=O)[C@@H](N2CCc3cn(Cc4cccc(S(C)(=O)=O)c4)nc3C2=O)COc2ccccc21"
  TARGET_OR_TEST_SYSTEM: "human RIPK1 (1-375) (Homo sapiens)"
  inhibition at 10 µM [%]: 88
- COMPOUND: "CN1C(=O)[C@@H](N2CCc3cn(CC4CCOC4)nc3C2=O)COc2ccccc21 (some centres unmarked)"
  TARGET_OR_TEST_SYSTEM: "human RIPK1 (1-375) (Homo sapiens)"
  inhibition at 10 µM [%]: 88
- COMPOUND: "Cc1c2c(nn1Cc1ccccc1)C(=O)N([C@H]1COc3cc(C#N)ccc3N(C)C1=O)CC2"
  TARGET_OR_TEST_SYSTEM: "human RIPK1 (1-375) (Homo sapiens)"
  inhibition at 10 µM [%]: 100
- COMPOUND: "CCOC(=O)c1c2c(nn1Cc1ccccc1)C(=O)N([C@H]1COc3ccccc3N(C)C1=O)CC2"
  TARGET_OR_TEST_SYSTEM: "human RIPK1 (1-375) (Homo sapiens)"
  inhibition at 10 µM [%]: 99

* * *

Reported inhibition at 10 µM values follow for various molecules
Target: human RIPK1 (1-375) (Homo sapiens, UniProt Q13546)
Construct: human RIPK1 (1-375) gene; GST; made in house; host or cells: Sf-9 insect cells
Assay: Human RIPK1 enzyme inhibitory effect (ADP-Glo Kinase Assay)
Assay type: biochemical
Settings: read-out: human RIPK1 enzyme inhibitory effect at 10 μM (% inhibition), 10 μM test compound; well without enzyme = 100% inhibition

- MOLECULE: "CN1C(=O)[C@@H](N2CCc3c(nn(Cc4ccccc4)c3C(=O)O)C2=O)COc2ccccc21"
  inhibition at 10 µM / %: 67
- MOLECULE: "CN1C(=O)C(N2CCc3c(nn(Cc4ccccc4F)c3Cl)C2=O)CCc2c1cnn2C (centres unmarked)"
  inhibition at 10 µM / %: 98
- MOLECULE: "CN1C(=O)[C@@H](N2CCc3cn(Cc4ccn(C)n4)nc3C2=O)COc2ccccc21"
  inhibition at 10 µM / %: 92
- MOLECULE: "CN1C(=O)[C@@H](N2CCc3cn(CC4CCCC4)nc3C2=O)COc2ccccc21"
  inhibition at 10 µM / %: 100
- MOLECULE: "O=C1Nc2ccccc2CCC1N1CCc2cn(Cc3ccccc3)nc2C1=O (centres unmarked)"
  inhibition at 10 µM / %: 97
- MOLECULE: "O=C1Nc2ccc(Br)cc2OC[C@@H]1N1CCc2c(nn(Cc3ccccc3)c2Cl)C1=O"
  inhibition at 10 µM / %: 99
- MOLECULE: "CN1C(=O)[C@@H](N2CCc3cn(CC4CCCOC4)nc3C2=O)COc2ccccc21 (some centres unmarked)"
  inhibition at 10 µM / %: 97
- MOLECULE: "CN1C(=O)[C@@H](N2CCc3cn(CC4CC(F)(F)C4)nc3C2=O)COc2ccccc21"
  inhibition at 10 µM / %: 95
- MOLECULE: "Cc1c2c(nn1Cc1ccccc1)C(=O)N([C@H]1COc3ccccc3N(C)C1=O)CC2"
  inhibition at 10 µM / %: 100
- MOLECULE: "CNC(=O)c1cc2c(cc1F)N(C)C(=O)[C@@H](N1CCc3c(nn(Cc4ccccc4)c3Cl)C1=O)CO2"
  inhibition at 10 µM / %: 101
- MOLECULE: "CN1C(=O)[C@@H](N2CCCn3nc(Cc4ccccc4)nc3C2=O)COc2ccccc21"
  inhibition at 10 µM / %: 91
- MOLECULE: "CN1C(=O)[C@@H](N2CCc3cn(Cc4ccccc4)nc3C2=O)COc2cc(Br)ccc21"
  inhibition at 10 µM / %: 101
- MOLECULE: "O=C1Nc2ccccc2CCC1N1Cc2cn(Cc3ccccc3)nc2C1=O (centres unmarked)"
  inhibition at 10 µM / %: 80
- MOLECULE: "CNC(=O)c1ccc2c(c1)OC[C@H](N1CCc3cn(Cc4ccccc4F)nc3C1=O)C(=O)N2C"
  inhibition at 10 µM / %: 101
- MOLECULE: "CN1C(=O)[C@@H](N2CCc3cn(Cc4ccccc4)nc3C2=O)COc2ccc(Br)cc21"
  inhibition at 10 µM / %: 100
- MOLECULE: "COCc1ccc2c(c1)OC[C@H](N1CCc3c(nn(Cc4ccccc4)c3Cl)C1=O)C(=O)N2C"
  inhibition at 10 µM / %: 100
- MOLECULE: "CN1C(=O)[C@@H](N2CCc3cn(Cc4ccccc4)nc3C2=O)COc2cc(F)ccc21"
  inhibition at 10 µM / %: 99
